parameterMeasured: glass transition temperature (°C)

*CCN(*)C(=O)c1ccccc1F (repeat unit) | 109.00
*c1ccc(Oc2ccc(NC(=O)c3cccc(C(=O)Nc4ccc(Oc5ccc(-n6c(=O)c7cc8c(=O)n(*)c(=O)c8cc7c6=O)cc5)cc4)c3)cc2)cc1 (repeat unit) | 282.00
*/C=C/C1CC(*)C2C(=O)N(c3ccccc3C)C(=O)C12 (repeat unit) | 248.00
*c1ccc(C(C)(C)c2ccc(N3C(=O)c4ccc(Oc5cccc6c(Oc7ccc8c(c7)C(=O)N(*)C8=O)cccc56)cc4C3=O)cc2)cc1 (repeat unit) | 265.00

* * *

parameterMeasured: glass transition temperature (°C)

*CC(*)C(=O)Nc1ccc(Cl)cc1 (repeat unit) | 76.00

(I) *c1cccc(C(F)(F)C(F)(F)C(*)(F)F)c1 (repeat unit)
(II) *Oc1ccc(S(=O)(=O)c2ccc(-c3ccc(*)cc3)cc2)cc1 (repeat unit)
**Q:** When their glass transition temperature values are compared, which is larger, I or II ? Write the label of whichever entry you select.
**A:** II
(II: 269.00 °C, I: 29.00 °C)

* * *

parameterMeasured: glass transition temperature (°C)

*c1ccc2c(c1)C(=O)N(c1ccc(Oc3ccc(N4C(=O)c5ccc(C(*)(C(F)(F)F)C(F)(F)F)cc5C4=O)cc3)c(O)c1)C2=O (repeat unit) | 292.00

(a) *c1cc(C(=O)Oc2ccc(-c3ccc(O[Si](C)(C)C(C)(C)C)cc3)cc2)cc(N2C(=O)c3ccc(-c4ccc5c(c4)C(=O)N(*)C5=O)cc3C2=O)c1 (repeat unit)
(b) *CCN(CCOC(=O)OCc1ccc(COC(=O)O*)cc1)c1ccc(/N=N/c2ccc([N+](=O)[O-])cc2)cc1 (repeat unit)
**Q:** Name the one with the greater glass transition temperature value, either a or b as given. Indicate your choice by writing its label.
**A:** a
(a: 230.00 °C, b: 138.80 °C)

(I) *Oc1ccc(OC(=O)c2ccc(-c3ccc(C(*)=O)cc3)cc2-c2ccccc2)c2ccccc12 (repeat unit)
(II) *C1C(=O)N(c2ccccc2C(=O)OC)C(=O)C1* (repeat unit)
**Q:** Could you please tell me which of these two has the higher glass transition temperature: I or II ? Kindly state the label of the option you pick.
**A:** II
(II: 259.00 °C, I: 165.00 °C)

* * *

parameterMeasured: glass transition temperature (°C)

Reference set (5 entries):
*c1ccc(Oc2ccc3ccccc3c2-c2c(Oc3ccc(N4C(=O)c5ccc(NC(=O)Nc6ccc(Oc7ccc(NC(=O)Nc8ccc9c(c8)C(=O)N(*)C9=O)cc7)cc6)cc5C4=O)cc3)ccc3ccccc23)cc1 (repeat unit) | 274.00
*c1ccc(Sc2ccc(Sc3ccc(Sc4ccc(N5C(=O)c6ccc(-c7ccc8c(c7)C(=O)N(*)C8=O)cc6C5=O)cc4)cc3)cc2)cc1 (repeat unit) | 227.10
*CC(CO*)(CSCCCCC)CSCCCCC (repeat unit) | -33.00
*Oc1ccc(S(=O)(=O)c2ccc(Oc3ccc(/C=C4\CCC/C(=C\c5ccc(Oc6ccc(S(=O)(=O)c7ccc(Oc8ccc(C(C)(C)c9ccc(*)cc9)cc8)cc7)cc6)cc5)C4=O)cc3)cc2)cc1 (repeat unit) | 194.00
*/C=C/C1CC(*)C(C2CC=CCC2)C1 (repeat unit) | 105.00

(1) *C(=O)Oc1ccc(C(C)(C)c2ccc(OC(=O)c3ccc4c(c3)C(=O)N(c3cccc(N5C(=O)c6ccc(*)cc6C5=O)c3)C4=O)cc2)cc1 (repeat unit)
(2) *Oc1cccc(NC(=O)CCCCCCCC(=O)Nc2ccc(*)cc2)c1 (repeat unit)
**Q:** Two entries are listed, 1 and 2 . Which one carries the higher glass transition temperature? Respond with the label that goes with your answer.
**A:** 1
(1: 225.00 °C, 2: 120.00 °C)

* * *

parameterMeasured: glass transition temperature (°C)

Consider the reported glass transition temperature for these compounds:
*CC(C)(C)COC(=O)Nc1ccc(C)c(NC(=O)O*)c1 (repeat unit) | -32.00
*c1ccc(C(c2ccc(N3C(=O)c4ccc(Oc5cc6ccccc6cc5Oc5ccc6c(c5)C(=O)N(*)C6=O)cc4C3=O)cc2)(C(F)(F)F)C(F)(F)F)cc1 (repeat unit) | 256.00
*C(=O)c1ccc2c(c1)C(=O)N(c1ccc(Oc3cccc(-c4cc(-c5ccccc5)cc(-c5cccc(Oc6ccc(N7C(=O)c8ccc(*)cc8C7=O)cc6)c5)n4)c3)cc1)C2=O (repeat unit) | 260.00
*C(=O)c1ccc2c(c1)C(=O)N(c1cccc(C(=O)c3c(C)cc(C)c(N4C(=O)c5ccc(*)cc5C4=O)c3C)c1)C2=O (repeat unit) | 300.00
*c1ccc(Oc2ccc(C(=O)c3cccc(C(=O)c4ccc(Oc5ccc(-c6nc(-c7ccccc7)[nH]c6*)cc5)cc4)c3)cc2)cc1 (repeat unit) | 230.00

(I) *C(=O)Nc1ccc(-c2cc(-c3ccccc3)cc(-c3ccc(NC(=O)c4ccc5c(c4)C(=O)N(c4ccc(NC(=O)Nc6ccc(N7C(=O)c8ccc(*)cc8C7=O)cc6)cc4)C5=O)cc3)n2)cc1 (repeat unit)
(II) *CC(*)(CC(=O)OC1CCC1)C(=O)OC1CCC1 (repeat unit)
**Q:** Compare glass transition temperature: is it lower for I or for II ? // respond with label for picked entry
**A:** II
(II: 60.00 °C, I: 215.00 °C)

* * *

parameterMeasured: glass transition temperature (°C)

Observe how each entry below is paired with its result.
*C(=O)c1ccc2c(c1)C(=O)N(c1cccc(S(=O)(=O)c3cccc(N4C(=O)c5ccc(*)cc5C4=O)c3)c1)C2=O (repeat unit) | 275.50
*C/C=C/C(C)S(*)(=O)=O (repeat unit) | 71.00
*c1nnc(-c2ccc(Oc3ccc(C(c4ccc(Oc5ccc(*)c6ccccc56)cc4)(C(F)(F)F)C(F)(F)F)cc3)c3ccccc23)o1 (repeat unit) | 220.00
*CC(O)CCCCC(O)CN(*)c1ccc(N(C)C)cc1 (repeat unit) | 72.00
*CCOC(=O)CCC(=O)O* (repeat unit) [Poly(ethylene succinate)] | -8.63
*c1cccc(C(=O)Nc2ccc(Oc3ccc(-c4ccc(Oc5ccc(NC(=O)c6cccc(N7C(=O)c8ccc(-c9cccc%10c9C(=O)N(*)C%10=O)cc8C7=O)c6)cc5)cc4)cc3)cc2)c1 (repeat unit) | 275.00
*Oc1ccc(NC(=O)c2ccc(C(=O)Nc3ccc(Oc4ccc(C(c5ccc(*)cc5)(C(F)(F)F)C(F)(F)F)cc4)cc3)cc2)cc1 (repeat unit) | 243.00
*c1ccc(Oc2ccc(C(C)(C)c3ccc(Oc4ccc(-c5cccc(*)n5)cc4C(F)(F)F)cc3)cc2)c(C(F)(F)F)c1 (repeat unit) | 125.00

(a) *CC(*)(C)C(=O)OC1CC(C)CCC1C(C)C (repeat unit)
(b) *C(=O)NCCCCCCNC(=O)c1ccc(N2C(=O)c3ccc(*)cc3C2=O)cc1 (repeat unit)
(c) *CCOCCOc1ccc(N/C=N/c2ccc(O*)cc2)cc1 (repeat unit)
**Q:** Highest glass transition temperature first, then in falling order down to the smallest. Lab note: final answer is the ordered label list.
**A:** b, a, c
(b: 225.00 °C, a: 147.00 °C, c: 62.00 °C)

(P) *Oc1ccc(C(C)(C)c2ccc(OC(=O)c3ccc(C(*)=O)cc3)c(C)c2)cc1C (repeat unit)
(Q) *c1ccc2c(c1)C(=O)N(c1ccc(C(=O)Nc3ccc(Oc4ccccc4Oc4ccc(NC(=O)c5ccc(N6C(=O)c7ccc(C(*)(C(F)(F)F)C(F)(F)F)cc7C6=O)cc5)cc4)cc3)cc1)C2=O (repeat unit)
**Q:** In the pair P and Q , the larger recorded glass transition temperature belongs to which? State your choice using its label.
**A:** Q
(Q: 281.00 °C, P: 178.50 °C)

(I) *Oc1cccc(NC(=O)c2cc(NC(=O)c3ccc(OC(C)=O)cc3)cc(C(=O)Nc3ccc(*)cc3)c2)c1 (repeat unit)
(II) *c1ccc(NC(=O)c2ccc(OCCOCCOCCOCCOc3ccc(C(=O)Nc4ccc5[nH]c(*)nc5c4)cc3)cc2)cc1 (repeat unit)
**Q:** Problem: Given the entries I and II , determine which has the lower reported glass transition temperature. The response must carry the label of the picked entry.
**A:** II

(A) *c1ccc(Sc2cc3c(cc2Sc2ccc(N4C(=O)C5C6C=CC(C7C(=O)N(*)C(=O)C67)C5C4=O)cc2)C(=O)N(CCc2ccccc2)C3=O)cc1 (repeat unit)
(B) *Cc1ccc(C(C)(C)c2ccc(CN3C(=O)c4ccc(-c5ccc6c(c5)C(=O)N(*)C6=O)cc4C3=O)o2)o1 (repeat unit)
**Q:** Consider A and B . Which of these has its glass transition temperature at a higher number? Use the label to indicate which entry you chose.
**A:** A

* * *

parameterMeasured: glass transition temperature (°C)

Below, each entry is followed by its recorded glass transition temperature result.
*Oc1ccc(CC(NC(=O)CCc2ccc(OC(=O)CCC(*)=O)cc2)C(=O)OC)cc1 (repeat unit) | 91.50
*C(=O)c1ccc2c(c1)C(=O)N(c1ccc(Oc3ccc(Oc4ccc(N5C(=O)c6ccc(*)cc6C5=O)cc4C(F)(F)F)cc3)cc1)C2=O (repeat unit) | 237.10
*CC(*)(C)C(=O)OC (repeat unit) [poly(methyl methacrylate)] | 108.92
*c1ccc(Oc2ccc(-c3ccc(Oc4ccc(N5C(=O)C(c6ccccc6)=C(c6ccc(C7=C(c8ccccc8)C(=O)N(*)C7=O)cc6)C5=O)cc4)cc3)cc2)cc1 (repeat unit) | 282.00

(A) *Oc1ccc(C(C)(c2ccccc2)c2ccc(Oc3ccc(C(=O)C(=O)c4ccc(*)cc4)cc3)cc2)cc1 (repeat unit)
(B) *Oc1ccc(CC(Cc2ccc(*)cc2)(C(=O)OCC)C(=O)OCC)cc1 (repeat unit)
**Q:** Would you kindly point out which of A and B has the smaller glass transition temperature figure? Record your answer as the label of the chosen record.
**A:** B
(B: 54.00 °C, A: 177.00 °C)
